All figures here come from patent US8362008B2.

Biological target: human 11β-HSD1 enzyme (Homo sapiens, UniProt P28845)
Construct: stably transfected with a construct containing the full-length gene coding for the human 11β-HSD1 enzyme; expressed in transfected cells; host or cells: HEK293 (HEK293/11β-HSD1 cells)
Sequence (P28845 whole entry): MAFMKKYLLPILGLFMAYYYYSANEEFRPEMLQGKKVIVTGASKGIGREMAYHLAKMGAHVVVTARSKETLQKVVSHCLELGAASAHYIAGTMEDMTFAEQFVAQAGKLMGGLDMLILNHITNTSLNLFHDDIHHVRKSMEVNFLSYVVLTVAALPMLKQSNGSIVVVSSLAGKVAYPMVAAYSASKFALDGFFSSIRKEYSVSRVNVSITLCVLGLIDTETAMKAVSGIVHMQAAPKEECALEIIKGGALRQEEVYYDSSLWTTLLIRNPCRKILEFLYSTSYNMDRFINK
Test: Cellular in vitro 11β-HSD1 enzyme inhibition assay (SPA, HEK293/11β-HSD1 cells)
Type: cell-based
Conditions: HEK293 cells stably transfected with human 11β-HSD1; Table 1
pIC50: −log10 of the molar value.
Observation Type: pIC50

| Compound | pIC50 |
| --- | --- |
| CS(=O)(=O)NCCNC(=O)N1CCC(c2cc(C(=O)N3CCCC4CCCCC43)cs2)CC1 (centres unmarked) | 7.11 |
| COC(=O)N1CCC(c2cc(C(=O)N3CCCCC3c3ccccc3)cs2)CC1 (centres unmarked) | 7.21 |
| O=C(c1csc(C2CCCCC2)c1)N1CCCCCC1 | 6.05 |

[A] CCc1cc(C(=O)N2CCCCC2)c(Cl)s1
[B] CCc1cc(C(=O)N2CC3(C)CC2CC(C)(C)C3)cs1 (centres unmarked)
# compare pIC50 for A vs B ; return the one with the smaller value # answer = label of selected item
A

[I] CC1(C)CCCN(C(=O)c2csc(C3CCN(C(=O)NCCO)CC3)c2)CC1
[II] COCc1cc(C(=O)N2CCCC3(CCCCC3)C2)cs1
# compare pIC50 for I vs II ; return the one with the smaller value # answer = label of selected item
II
(II: 7.17, I: 7.64)

[1] O=C(c1csc(C2CCNCC2)c1)N1CCC[C@@H]2CCCC[C@@H]21 (single isomer, unassigned)
[2] CC(=O)N1CCC(c2cc(C(=O)N3CCC[C@@H]4CCCC[C@@H]43)cs2)C1 (relative stereo)
# compare pIC50 for 1 vs 2 ; return the one with the smaller value # answer = label of selected item
1
(1: 6.90, 2: 7.70)

---

Target: human 11β-HSD1 enzyme (Homo sapiens, UniProt P28845)
Construct: stably transfected with a construct containing the full-length gene coding for the human 11β-HSD1 enzyme; expressed in transfected cells; host or cells: HEK293 (HEK293/11β-HSD1 cells)
Assay: Cellular in vitro 11β-HSD1 enzyme inhibition assay (SPA, HEK293/11β-HSD1 cells)
Type: cell-based
Details: HEK293, less than or equal to 1000 nM (1 μM)
pIC50: −log10 of the molar value.
Observation Type: pIC50

In the examples that follow, each entry is paired with its recorded pIC50.
| Compound | Measured On | pIC50 |
| --- | --- | --- |
| CC(=O)N1CCC(c2cc(C(=O)N3CCCC(C)(C)CC3)cs2)CC1 | human 11β-HSD1 enzyme (Homo sapiens, UniProt P28845) | ≥ 6.00 |
| N#CCc1cc(C(=O)N2CCC[C@@H]3CCCC[C@@H]32)cs1 (relative stereo) | human 11β-HSD1 enzyme (Homo sapiens, UniProt P28845) | ≥ 6.00 |
| CCc1cc(C(=O)N2CCCCCC2)c(Br)s1 | human 11β-HSD1 enzyme (Homo sapiens, UniProt P28845) | ≥ 6.00 |
| CC1(C)CCCN(C(=O)c2csc(C3CCCCC3)c2)C1 | human 11β-HSD1 enzyme (Homo sapiens, UniProt P28845) | ≥ 6.00 |
| O=C(c1ccno1)N1CCC(c2cc(C(=O)N3CCCC4CCCCC43)cs2)CC1 (stereo not drawn) | human 11β-HSD1 enzyme (Homo sapiens, UniProt P28845) | ≥ 6.00 |
| O=C(c1csc(C2CCOCC2)c1)N1CCC[C@@H]2CCCC[C@@H]21 (single isomer, unassigned) [CC-140] | human 11β-HSD1 enzyme (Homo sapiens, UniProt P28845) | ≥ 6.00 |
| O=C(NCCO)N1CCC(c2cc(C(=O)N3CCCC4CCCCC43)cs2)CC1 (stereo not drawn) | human 11β-HSD1 enzyme (Homo sapiens, UniProt P28845) | ≥ 6.00 |
| CC1(C)CCCN(C(=O)c2csc(C3CCN(C(C)(C)C(N)=O)CC3)c2)CC1 | human 11β-HSD1 enzyme (Homo sapiens, UniProt P28845) | ≥ 6.00 |

Below: the item to evaluate.
The compound listed as O=C1COCCN1c1cc(C(=O)N2CCCC3CCCCC32)cs1 (stereo not drawn) shows pIC50 equal to ≥ 6.00
